The origin of these recorded values is PubChem BioAssay (EPA / NIEHS).

- Test: CCTE_Shafer_MEA_acute_burst_percentage_mean: CCTE's Neural Acute Assay for Percentage of Spikes in a Burst, Shafer Lab (AID 2284017)
Calls of active or inactive are those of the source. Rule for the calls: active = hit-call score of the fitted dose curve at least 0.9, where 1 is the maximum; inactive = score below 0.9.
Form entry, call: pick from label 1 (active), label 0 (inactive)

{"Molecule": "CCCCC(CC)COCC1CO1 (configuration not stated)", "Class label": "label 0"}
{"Molecule": "O=C1CCCN1CCO", "Class label": "label 0"}
{"Molecule": "CCCCC(CC)COC(=O)c1ccccc1O (configuration not stated)", "Class label": "label 0"}

Exercise: Please indicate how the test categorized Nc1ncn([C@@H]2O[C@H](CO)[C@@H](O)[C@H]2O)c(=O)n1 .
Solution: label 1

Exercise: Please indicate how the test categorized O=C(c1ccc(O)cc1)c1ccc(O)cc1O .
Solution: label 0

Exercise: Please indicate how the test categorized CO[Si](OC)(OC)c1ccccc1 .
Solution: label 0

Exercise: Please indicate how the test categorized CCOC(=O)c1ccccc1C(=C1C=C(Br)C(=O)C(Br)=C1)c1cc(Br)c(O)c(Br)c1 .
Solution: label 0

---

- Test: ATG_PXRE_CIS: Attagene CIS-FACTORIAL HepG2 Assay for human Pregnane X Receptor Element (PXRE) (AID 2282957)
- Measurement context: HepG2 Attagene CIS-FACTORIAL PXRE reporter, mRNA; actives raise or lower the signal
Calls of active or inactive are those of the source. How the source made its calls: active means hit-call score of the fitted dose curve at least 0.9, where 1 is the maximum; inactive means score below 0.9.
Form entry, call: pick from 1 (yes) = active, 0 (no) = inactive

Recorded results for 3 compounds are shown here.
{"Compound": "CCCCC/C=C\\C/C=C\\CCCCCCCC(=O)OC", "Class label": "1 (yes)"}
{"Compound": "Cc1cc(=O)n(-c2ccccc2)n1C", "Class label": "0 (no)"}
{"Compound": "CCCCC(CC)COC(=O)c1ccccc1O (stereo not given)", "Class label": "1 (yes)"}

Now look at this entry.
Exercise: Please indicate how the test categorized O=c1cc(-c2ccccc2)oc2ccccc12 .
Solution: 1 (yes)

---

- Target system: Cellular tumor antigen p53 (Homo sapiens) (UniProt P04637)
- Sequence (P04637 whole entry, looked up): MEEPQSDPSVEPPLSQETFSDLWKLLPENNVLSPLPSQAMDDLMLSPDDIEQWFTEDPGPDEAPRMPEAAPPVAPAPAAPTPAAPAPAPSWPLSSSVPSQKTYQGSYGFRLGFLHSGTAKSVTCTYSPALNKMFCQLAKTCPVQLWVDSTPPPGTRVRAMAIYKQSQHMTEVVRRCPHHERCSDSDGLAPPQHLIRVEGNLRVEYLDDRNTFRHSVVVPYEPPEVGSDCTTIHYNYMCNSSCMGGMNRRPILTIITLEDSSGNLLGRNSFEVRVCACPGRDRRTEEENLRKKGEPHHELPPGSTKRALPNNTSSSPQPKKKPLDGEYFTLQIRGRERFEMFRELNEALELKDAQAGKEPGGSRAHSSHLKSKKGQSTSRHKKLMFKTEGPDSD
- Test: TOX21_p53_BLA_p2_ratio: Tox21 HCT-116 p53 Agonism Beta-lactamase Assay, Ratio, Phase 2 (AID 2283592)
Results filed as inconclusive are left out. Active and inactive are the calls of the source. The calls were made as follows: active = hit-call score of the fitted dose curve at least 0.9, where 1 is the maximum; inconclusive = response in the unintended direction; inactive = score below 0.9.
Form entry, call: pick from label 1 for active, label 0 for inactive

{"Compound": "CC=C1CC2C=CC1C2 (centres undefined)", "Class label": "label 0"}
{"Compound": "C=CC(C)(CCC=C(C)C)OC(=O)C(C)C (centres undefined)", "Class label": "label 0"}
{"Compound": "C[Si](C)(CCCN)O[Si](C)(C)CCCN", "Class label": "label 0"}
{"Compound": "N#[N+]c1ccc2c(S(=O)(=O)[O-])cccc2c1O", "Class label": "label 0"}
{"Compound": "CCCCCCCCCCC=CC#N", "Class label": "label 0"}

Exercise: Please indicate how the test categorized ON(Cc1ccccc1)Cc1ccccc1 .
Solution: label 0

---

- Read-out: Monokine induced gamma interferon (MIG), CXCL9 (gene 4283)
- Test: BSK_BE3C_MIG: BioMAP Diversity Plus: BE3C Assay for Monokine induced gamma interferon (MIG) Biomarker Activity (AID 2283035)
- Measurement context: primary human bronchial epithelial cells; actives raise or lower the signal
Active and inactive are the calls of the source. The calls were made as follows: active = hit-call score of the fitted dose curve at least 0.9, where 1 is the maximum; inactive = score below 0.9.
Form entry, call: pick from yes (1) (active), no (0) (inactive)

Exercise: Please indicate how the test categorized Nc1ccc(N)c(Cl)c1 .
Solution: no (0)

Exercise: Please indicate how the test categorized CCO[Si](CCCN=C=O)(OCC)OCC .
Solution: no (0)

Exercise: Please indicate how the test categorized CO[Si](OC)(OC)c1ccccc1 .
Solution: no (0)

Exercise: Please indicate how the test categorized C=CC=CC=CCCCCC .
Solution: no (0)

Exercise: Please indicate how the test categorized O=C(Cl)c1cc(C(=O)Cl)cc(C(=O)Cl)c1 .
Solution: yes (1)
